# Tested on: A2780s cells (ovarian cancer)
# ASSAY: Cell proliferation inhibition, A2780s (MTT)
# Type: cell-based
# SETTINGS: Homo sapiens, 96 h incubation, read-out: Proliferation IC50, Ovarian cancer A2780s
pIC50: −log10 of the molar value.
READOUT: pIC50

Solved cases below.
# CHEMICAL_STRUCTURE, MEASURED_RESULT
measured = [
    ("CN(Cc1nc2c(N3CCOCC3)nc(-c3cncnc3)nc2n1C)c1ncc(C(=O)NO)cn1", "6.00 to 7.00"),
    ("CC(C)=CCN(CC=C(C)C)c1ccc(-c2nc(N3CCOCC3)c3nc(CN(C)c4ncc(C(=O)NO)cn4)n(C)c3n2)cc1", "7.00 to 8.00"),
    ("CN(Cc1nc2c(N3CCOCC3)nc(-c3ccc(S(C)(=O)=O)cc3)nc2n1C)c1ncc(C(=O)NO)cn1", "8.00 to 10.00"),
]

Please look at the following compound next.
Ask: Give pIC50 for `CCn1c(CN(C)c2ncc(C(=O)NO)cn2)nc2c(N3CCOCC3)nc(-c3ccc(OC)nc3)nc21`
Result: 6.00 to 7.00

###

# Test system: MV4-11 cells (acute myeloid leukemia)
# ASSAY: Cell proliferation inhibition, MV4-11 (cck-8)
# Assay type: cell-based
# SETTINGS: Homo sapiens, 96 h incubation, read-out: Proliferation IC50, Acute myeloid leukemia MV4-11
pIC50: −log10 of the molar value.
READOUT: pIC50

Solved cases below.
# COMPOUND, MEASURED_RESULT
data = [
    ("CCn1c(CN(C)c2ncc(C(=O)NO)cn2)nc2c(N3CCOCC3)nc(-c3ccc(OC)nc3)nc21 [CLJ-2]", "6.00 to 7.00"),
    ("Cc1ccsc1-c1nc(N2CCOCC2)c2nc(CN(C)c3ncc(C(=O)NO)cn3)n(C)c2n1 [CLJ-19]", "8.00 to 10.00"),
    ("CN(Cc1nc2c(N3CCOCC3)nc(-c3cccc(O)c3)nc2n1C)c1ncc(C(=O)NO)cn1 [CLJ-27]", "8.00 to 10.00"),
    ("CN(Cc1nc2c(N3CCOCC3)nc(-c3cccnc3)nc2n1C)c1ncc(C(=O)NO)cn1 [CLJ-9]", "8.00 to 10.00"),
]

Ask: State pIC50 on MV4-11 cells (acute myeloid leukemia). Entry: CCCN(Cc1nc2c(N3CCOCC3)nc(-c3ccc4[nH]ncc4c3)nc2n1C)c1ncc(C(=O)NO)cn1 [CLJ-16]
Result: < 6.00

###

# TESTED_ON: HDAC5 (Homo sapiens, UniProt Q9UQL6)
# Sequence (Q9UQL6 656-1122 limits assumed): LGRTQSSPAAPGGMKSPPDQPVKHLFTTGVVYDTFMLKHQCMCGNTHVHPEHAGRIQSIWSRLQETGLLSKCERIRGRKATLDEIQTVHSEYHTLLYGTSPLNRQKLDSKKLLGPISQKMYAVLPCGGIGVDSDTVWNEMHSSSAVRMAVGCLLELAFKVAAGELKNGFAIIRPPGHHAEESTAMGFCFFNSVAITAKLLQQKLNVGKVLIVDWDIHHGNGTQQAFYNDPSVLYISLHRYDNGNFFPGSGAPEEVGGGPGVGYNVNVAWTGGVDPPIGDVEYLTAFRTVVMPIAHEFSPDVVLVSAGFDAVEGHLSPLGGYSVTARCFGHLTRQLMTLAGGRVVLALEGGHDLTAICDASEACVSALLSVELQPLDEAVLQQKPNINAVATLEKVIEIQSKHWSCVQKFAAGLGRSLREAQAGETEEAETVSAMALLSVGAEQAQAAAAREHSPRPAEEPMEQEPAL
READOUT: IC50

Solved cases below.
# CHEMICAL_STRUCTURE, TESTED_ON, IC50
records = [
    ("CN(Cc1nc2c(N3CCOCC3)nc(-c3cnc(N)nc3)nc2n1C)c1ncc(C(=O)NO)cn1", "HDAC5 (Homo sapiens, UniProt Q9UQL6)", "100 to 1000 nM"),
    ("COc1ccc(-c2nc(N3CCOCC3)c3nc(CN(C)c4ncc(C(=O)NO)cn4)n(C)c3n2)cc1", "HDAC5 (Homo sapiens, UniProt Q9UQL6)", "1000 to 10000 nM"),
    ("CN(Cc1nc2c(N3CCOCC3)nc(-c3ccc(N)cc3)nc2n1C)c1ncc(C(=O)NO)cn1", "HDAC5 (Homo sapiens, UniProt Q9UQL6)", "100 to 1000 nM"),
]

Ask: Give IC50 for `COc1ccc(-c2nc(N3CCOCC3)c3nc(CN(C)c4ncc(C(=O)NO)cn4)n(C)c3n2)cn1`
Result: 1000 to 10000 nM
